experiment: qHTS drug screen for cell cycle checkpoint inhibitors in PARPi-resistant BRCA-mutant ovarian cancer cell lines. (AID 1963452); details: PEO1/OlaR viability, CellTiter-Glo luminescence, 96 h; hits give low values
Provide the reported Z-AUC of each item.
Answers are plain numbers.

Please review the following examples before continuing.
Q. Which measured Z-AUC value corresponds to O=c1c(-c2ccc(O)cc2)coc2c([C@@H]3O[C@H](CO)[C@@H](O)[C@H](O)[C@H]3O)c(O)ccc12 ?
A. 1.23

Q. Which measured Z-AUC value corresponds to C=C1/C(=C/C=C2\CCCC3(C)[C@@H]([C@H](C)/C=C/C=C/C(O)(CC)CC)CC[C@@H]23)C[C@@H](O)C[C@@H]1O (some centres undefined) ?
A. -0.128

Q. Which measured Z-AUC value corresponds to CCOC(=O)N[C@@H]1CC[C@@H]2[C@@H](C1)C[C@H]1C(=O)O[C@H](C)[C@H]1[C@H]2/C=C/c1ccc(-c2cccc(F)c2)cn1 ?
A. 0.314

Further cases:
Q. Which measured Z-AUC value corresponds to COc1ccc(S(=O)(=O)NCc2ccc(C(=O)NCCc3ccc(Cl)cn3)cc2)cc1 ?
A. -2

----------
test: AP1 Signaling Pathway (AID 357); settings: ME-180 (cervical carcinoma) AP-1-bla reporter, EGF-induced, beta-lactamase ratio, 5 h; at 7.69 µM (top of the series) unless noted;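 note: ME-180 reporter cells stimulated with EGF at its EC50 level; % is set by controls: 0 for no effect and ±100 for the full control effect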
Inconclusive results are not listed. Active and inactive are the calls of the source. The call rests on the fitted dose curve; in most records, active means well fitted curve in either direction with a large enough effect (not every such curve was filed as active); inconclusive means small, poorly fitted or top-dose-only effect, or another doubt; inactive means flat fitted curve, though single readings scatter.
value-type: activity change, negative = inhibition

Please review the following examples before continuing.
Q. Which measured activity change, negative = inhibition value corresponds to COc1ccccc1-c1cncnc1NCCNC(C)=O ?
A. -8.57% (inactive)

Q. Which measured activity change, negative = inhibition value corresponds to Oc1ccc(/C=C\c2cc(O)cc(O)c2)cc1 ?
A. -2.07% [at 17.2 µM] (inactive)

Answer for every listed entry: what is its activity change, negative = inhibition? The entries follow.
1. CCNc1ncc2nc(-c3cn(C)c4ccccc34)c(=O)n(-c3ccccc3)c2n1
2. CN(C)c1ccc(-c2nccc(NCCN3CCOCC3)n2)cc1
3. Cc1noc(C)c1-c1cc(NCc2cccs2)ncn1
4. O=C(c1ccncc1)N1CCC2(CC1)CN(c1ncccn1)C2

A.
2.53% (inactive)
-7.61% (inactive)
17% (inactive)
7.49% (inactive)

----------
test: KB-3-1 Cancer Cell Toxicity qHTS against the NCATS CANVASS Library (AID 1347366); settings: KB-3-1 viability, CellTiter-Glo luminescence, 72 h; series mostly up to 46.1 µM; note: nearly all actives have a fitted effect of over 75% in size
Results filed as inconclusive are left out. The source made the active and inactive calls. The call rests on the fitted dose curve; in most records, active means well fitted cell-killing curve with a large enough effect; inconclusive means small, poorly fitted or top-dose-only effect; inactive means flat fitted curve, though single readings scatter.
# valid calls are true (1) (active), false (0) (inactive); nothing else

Sample answers from the record:
Q. Test call, this compound: C/C=C/C1C=CC2CC(C)CC(C)C2C1C(=O)CC(=O)NC(CO)C/C=C/CCCCC (stereo unspecified)
A. false (0)

Q. Test call, this compound: C=CC(C)(C)C(=O)[C@@H](C)[C@@H]1CC[C@@](C)(C=C)O1
A. false (0)

Q. Test call, this compound: C[C@@]12CCC[C@@](C)(C(=O)O)[C@H]1C[C@@H](O)[C@@]13C[C@@H](CC[C@@H]21)[C@](C)(O)C3
A. false (0)

Q. Test call, this compound: CN1CC[C@]23c4ccccc4N[C@H]1[C@]21CCN(C)[C@H]3Nc2ccccc21
A. false (0)

Further cases:
Q. Test call, this compound: Cc1cc(O)cc2c1C(=O)c1c(O)cc(O)cc1C2=O
A. false (0)

Q. Test call, this compound: COc1ccc(-c2oc3cc(OC)cc(OC)c3c(=O)c2O)cc1
A. false (0)

Q. Test call, this compound: C=C[C@](Cl)(CBr)CCC=C(C)C
A. false (0)

Q. Test call, this compound: COc1cc2c(cc1OC)[C@@H](c1ccc3c(c1)OCO3)C(C)[C@@H](C)C2=O (stereo partly specified)
A. false (0)

Q. Test call, this compound: COc1ccc([C@@H]2c3cc4c(cc3C(=O)C(C)C2C)OCO4)cc1OC (stereo partly specified)
A. false (0)

Q. Test call, this compound: COc1cc(C2C3=C(Cc4cc5c(cc42)OCO5)C(=O)OC3)cc(OC)c1OC (stereo unspecified)
A. true (1)

Q. Test call, this compound: C=C1CC[C@@H](O[C@H]2C[C@@](O)([C@H](C)NC(=O)c3[nH]c(C)c(Cl)c3Cl)[C@H](O)[C@@H](C)O2)[C@@H]2C=C[C@H](C)C(/C(O)=C3/C(=O)[C@H](C(C)C)N([C@@H]4O[C@H](C)[C@H](OC(N)=O)[C@H](OC(C)=O)[C@@H]4OC)C3=O)[C@@H]12 (stereo partly specified)
A. false (0)

Q. Test call, this compound: Cc1occ2c1C(=O)c1c(cc(O)c(O)c1O)C2=O
A. false (0)

Q. Test call, this compound: C/C(=C\[C@H](C)C(=O)C[C@H](O)CC1CC(=O)NC(=O)C1)[C@@H]1OC(=O)CCCC/C=C/C[C@@H](O)[C@@H]1C
A. true (1)

Q. Test call, this compound: CC(C)C[C@@H]1c2c(O)c(C=O)c(O)c(C=O)c2O[C@]2(C)C=C[C@@H](C(C)C)C[C@H]12
A. false (0)

Q. Test call, this compound: CO[C@H]1[C@@H](OC(=O)/C(C)=C\[C@@H]2O[C@@H]2[C@H]2O[C@H]2C)[C@H](O)[C@H](OCC23C[C@@H]4[C@H](C)CC[C@H]4C4(C=O)CC2C=C(C(C)C)C34C(=O)O)O[C@@H]1C (stereo partly specified)
A. false (0)

Q. Test call, this compound: C[C@H](c1cnc(N)[nH]1)c1ccc(O)c2[nH]cc(-c3cnc(-c4c[nH]c5ccccc45)c(=O)[nH]3)c12
A. false (0)
